tested on: BT-549 breast; experiment: NCI-60 one-dose screen, 48 h (100 = growth as untreated, 0 = no growth, -100 = all killed); conditions: 10 µM unless noted
This is part of a sample that, as a whole, favours compounds with a hit. Of some 83,000 tested, about 20% had one in any assay.
# growth >= 90% gives True, anything below gives False

Query: Could you please find out whether COc1cc(-c2nc(-c3ccccc3)[nH]c2-c2ccnc(NCCCNS(=O)(=O)c3cccc(F)c3)n2)ccc1F has growth that meets 90% or exceeds it?
Response: True

Query: Could you please find out whether Clc1cccc(/C=N/Nc2nc(N/N=C/c3cccc(Cl)c3)nc(N3CCOCC3)n2)c1 has growth that meets 90% or exceeds it?
Response: True

Query: Could you please find out whether COc1ccc(/C(=N\N=C(N)N)c2ccc(Cl)cc2)cc1OC has growth that meets 90% or exceeds it?
Response: False

Query: Could you please find out whether Clc1cccc(/C=N/Nc2nc(N/N=C/c3cccc(Cl)c3)nc(N3CCCCC3)n2)c1 has growth that meets 90% or exceeds it?
Response: True

Query: Could you please find out whether Cc1cc2nc3c4cc(C#N)ccc4n(CCN(C)C)c3nc2cc1C has growth that meets 90% or exceeds it?
Response: False

Query: Could you please find out whether CCn1c2ccc(/C=N/N(C)S(=O)(=O)CCN(C)C)cc2c2cc(/C=N/N(C)S(=O)(=O)CCN(C)C)ccc21 has growth that meets 90% or exceeds it?
Response: False

Query: Could you please find out whether O=C1Nc2ccc(F)cc2/C1=C\C(=O)c1ccc(NS(=O)(=O)c2ccccc2)cc1 has growth that meets 90% or exceeds it?
Response: True

Query: Could you please find out whether CC1=C(C)C(=O)C(Nc2ccc3c(c2)OCCO3)=C(Br)C1=O has growth that meets 90% or exceeds it?
Response: True

Query: Could you please find out whether Cn1cc(-c2nn3cc(-c4ccncc4)nc3s2)c2cc(Br)ccc21 has growth that meets 90% or exceeds it?
Response: False

Query: Could you please find out whether C#C[C@]1(O)CC[C@H]2[C@@H]3CC=C4c5sc(Nc6ccc(C)cn6)nc5CC[C@]4(C)[C@H]3CC[C@@]21C has growth that meets 90% or exceeds it?
Response: False

Query: Could you please find out whether COc1ccc(/C=N/N=C(/c2ccccc2)c2ccc3nc(-c4ccc(Cl)cc4)[nH]c3c2)cc1 has growth that meets 90% or exceeds it?
Response: False

Query: Could you please find out whether O=C(CCCCCCNC(=O)C(O)(O)C(F)(F)F)Nc1ncc(-c2ccccc2)s1 has growth that meets 90% or exceeds it?
Response: False

Query: Could you please find out whether CCOC(=O)c1cccnc1Nc1ccc(NC(=O)Nc2ccc(Cl)c(C(F)(F)F)c2)cc1 has growth that meets 90% or exceeds it?
Response: False

Query: Could you please find out whether N#Cc1nc(-c2ccccc2)oc1N1CCC(C2(C(F)(F)F)N=N2)CC1 has growth that meets 90% or exceeds it?
Response: True

Query: Could you please find out whether CCOP(=O)(OCC)OC[C@]12CCC(C)(C)CC1C1=CC[C@@H]3[C@@]4(C)CCCNC(C)(C)[C@@H]4CC[C@@]3(C)[C@]1(C)CC2 (some centres undefined) has growth that meets 90% or exceeds it?
Response: True

Query: Could you please find out whether CNC(=O)c1cc(N2CCc3cc(NC(=O)Nc4ccc(N5CCN(C)CC5)c(C(F)(F)F)c4)ccc32)ccn1 has growth that meets 90% or exceeds it?
Response: False

Query: Could you please find out whether Cc1ccc2c(n1)C(=O)C(Cl)=C(Nc1ccc(C#N)cc1)C2=O has growth that meets 90% or exceeds it?
Response: True
